- EXPERIMENTAL_SYSTEM: BRAF (V600E) (Homo sapiens, UniProt P15056, V600E)
- Sequence (P15056 whole entry V600E): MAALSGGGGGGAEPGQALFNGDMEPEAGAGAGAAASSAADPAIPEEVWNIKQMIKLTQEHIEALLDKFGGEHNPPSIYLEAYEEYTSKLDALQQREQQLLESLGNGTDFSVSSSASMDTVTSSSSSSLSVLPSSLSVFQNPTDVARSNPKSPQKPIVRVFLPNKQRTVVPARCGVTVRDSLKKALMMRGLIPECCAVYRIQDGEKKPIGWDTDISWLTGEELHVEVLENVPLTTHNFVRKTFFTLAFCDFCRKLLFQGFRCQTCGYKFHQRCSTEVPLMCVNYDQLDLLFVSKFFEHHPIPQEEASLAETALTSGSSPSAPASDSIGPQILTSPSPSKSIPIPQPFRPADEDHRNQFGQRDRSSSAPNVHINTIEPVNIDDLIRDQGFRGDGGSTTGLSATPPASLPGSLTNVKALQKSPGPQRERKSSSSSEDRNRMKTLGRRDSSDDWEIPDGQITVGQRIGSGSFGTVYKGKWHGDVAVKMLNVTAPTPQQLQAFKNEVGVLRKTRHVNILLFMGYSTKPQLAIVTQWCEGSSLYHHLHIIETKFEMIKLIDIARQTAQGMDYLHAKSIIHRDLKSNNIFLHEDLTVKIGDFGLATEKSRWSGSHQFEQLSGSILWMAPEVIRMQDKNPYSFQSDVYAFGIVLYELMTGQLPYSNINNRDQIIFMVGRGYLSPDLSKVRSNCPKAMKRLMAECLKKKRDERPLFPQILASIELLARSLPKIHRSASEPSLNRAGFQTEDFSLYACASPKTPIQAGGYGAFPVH
- PROTOCOL: KD BRAF (V600E) (Table 1)
Counter-ions that a name gives are not always drawn.
QUANTITY_KIND: Kd (nM)
Quick reminder: number only, in nM, skip the unit.

Data request: Provide value of Kd for this record tested with BRAF (V600E) (Homo sapiens, UniProt P15056, V600E): CCC(C)S(=O)(=O)Nc1ccc(F)c(Oc2ccc3ncn(CCC4CCN(C(=O)OC(C)(C)C)CC4)c(=O)c3c2)c1C#N (stereo not shown)
Data returned: 93.5

Data request: Can you handle `CN(Cc1ccc(CCCn2cnc3ccc(Oc4c(F)ccc(NS(=O)(=O)N5CCCC5)c4C#N)cc3c2=O)cc1)C(=O)OC(C)(C)C` next?
Data returned: 12.1

Data request: Next: `CC(C)(C)OC(=O)NCCCn1cnc2ccc(Oc3c(F)ccc(NS(=O)(=O)C4CCCC4)c3C#N)cc2c1=O`
Data returned: 7.83

Data request: Ok, now `CN(Cc1ccc(CCCn2cnc3ccc(Oc4c(F)ccc(NS(=O)(=O)C5CCCC5)c4C#N)cc3c2=O)cc1)C(=O)OC(C)(C)C`
Data returned: 33.7

Data request: What do we get for CCN(C)S(=O)(=O)Nc1cccc(Nc2ccc3ncn(CCOCCOCCN)c(=O)c3c2)c1C#N [Example 38, hydrochloride] ?
Data returned: 443

Data request: Entry to check: `CCN(C)S(=O)(=O)Nc1cccc(Nc2ccc3ncn(CC4CCN(C(=O)OC(C)(C)C)CC4)c(=O)c3c2)c1C#N`
Data returned: 813

Data request: Repeat for the following compound: `N#Cc1c(Nc2ccc3ncn(CCCc4ccccc4)c(=O)c3c2)cccc1NS(=O)(=O)N1CC[C@@H](F)C1`
Data returned: 25.6

* * *

- EXPERIMENTAL_SYSTEM: BRAF (V600E) (Homo sapiens, UniProt P15056, V600E)
- PROTOCOL: KD BRAF (V600E) (Table 1)
QUANTITY_KIND: pKd
Note on pKd: it is the negative log10 of concentration, concentration in mol/L.

Data request: Given the entry N#Cc1c(Nc2ccc3ncn(CCCC(=O)O)c(=O)c3c2)cccc1NS(=O)(=O)N1CC[C@@H](F)C1 [Example 39] , what pKd was observed with BRAF (V600E) (Homo sapiens, UniProt P15056, V600E)?
Data returned: 7.32

Data request: Quick one: CCN(C)S(=O)(=O)Nc1ccc(F)c(Oc2ccc3ncn(CCN4CCN(C(=O)OC(C)(C)C)CC4)c(=O)c3c2)c1C#N [Example 27]
Data returned: 7.55

Data request: Also CC(C)(C)OC(=O)N1CCN(CCn2cnc3ccc(Oc4c(F)ccc(NS(=O)(=O)C5CCCC5)c4C#N)cc3c2=O)CC1 [Example 25] , if possible.
Data returned: 8.15

Data request: Also need CC(C)(C)OC(=O)N1CCC(CCn2cnc3ccc(Nc4cccc(NS(=O)(=O)N5CCCC5)c4C#N)cc3c2=O)CC1 [Example 46] , thanks.
Data returned: 7.13

Data request: Okay, and CC(C)(C)OC(=O)NCCCn1cnc2ccc(Oc3c(F)ccc(NS(=O)(=O)N4CC[C@@H](F)C4)c3C#N)cc2c1=O [Example 4] ?
Data returned: 8.56

Data request: Would you mind doing CC(C)(C)OC(=O)N1CCN(CCn2cnc3ccc(Oc4c(F)ccc(NS(=O)(=O)N5CC[C@@H](F)C5)c4C#N)cc3c2=O)CC1 [Example 10] as well?
Data returned: 8.32

Data request: What do you get for CC(C)(C)OC(=O)N1CCC(CCn2cnc3ccc(Oc4c(F)ccc(NS(=O)(=O)N5CCCCC5)c4C#N)cc3c2=O)CC1 [Example 18] ?
Data returned: 7.24
